assay: in vitro dissolution of premix compared to beta form; format: physicochemical; details: Time in min 60; unit assumed
reported endpoint: in vitro dissolution (%)
Expressed in %, but write only the number.

Tell me the measured in vitro dissolution of Br.Cc1ccc(Sc2ccccc2N2CCNCC2)c(C)c1 [Beta Form, Vortioxetine hydrobromide] , please. 29
